Please respond with reported AMBEL herbicidal rating for every item in the list.
System: AMBEL (Ragweed, Common)
protocol: Postemergence herbicidal evaluation
Assay type: in vivo, Ambrosia artemisifolia
settings: postemergence, rate 0.0158 kg/ha
Format: numeric value only, no unit, no commentary.

Can you look up the measured AMBEL herbicidal rating of COC(=O)CC1SC(=Nc2cc(-n3c(=O)cc(C(F)(F)F)n(C)c3=O)c(F)cc2Cl)N(C)C1=O (centres unmarked) [Compound 88] for me?
9.0

Can you look up the measured AMBEL herbicidal rating of CCOC(=O)CN1C(=O)C(=C(C)C)S/C1=N/c1cc(-n2c(=O)cc(C(F)(F)F)n(C)c2=O)c(F)cc1Cl [Compound 20] for me?
4.0

Can you look up the measured AMBEL herbicidal rating of CCOC(=O)CN1C(=O)C(=Cc2ccc(F)cc2)SC1=Nc1cc(-n2c(=O)cc(C(F)(F)F)n(C)c2=O)c(F)cc1Cl [Compound 21] for me?
4.0

Can you look up the measured AMBEL herbicidal rating of CCOC(=O)CN1C(=O)C(CC(=O)OCCF)SC1=Nc1cc(-n2c(=O)cc(C(F)(F)F)n(C)c2=O)c(F)cc1Cl (centres unmarked) [Compound 82] for me?
9.0

Can you look up the measured AMBEL herbicidal rating of COC(=O)[C@H](Cc1ccc([N+](=O)[O-])cc1)N1C(=O)CSC1=Nc1cc(-n2c(=O)cc(C(F)(F)F)n(C)c2=O)c(F)cc1Cl [Compound 78] for me?
7.0

---

Please respond with reported SETVI herbicidal rating for every item in the list.
Tested on: SETVI (Foxtail, Green)
protocol: Postemergence herbicidal evaluation
Assay type: in vivo, Setaria viridis
settings: postemergence, rate 0.1250 kg/ha
Experimental: In the tests, seedling plants are grown in jiffy flats for about two weeks. The test compounds are dispersed in 50/50 acetone/water mixtures containing 0.5% TWEEN®20, a polyoxyethylene sorbitan monolaurate surfactant of Atlas Chemical Industries, in sufficient quantities to provide the equivalent of about 0.0156 kg to 0.500 kg per hectare of active compound when applied to the plants through a spray nozzle operating at 40 psi for a predetermined time. […]
Format: numeric value only, no unit, no commentary.

Can you look up the measured SETVI herbicidal rating of CC1SC(=Nc2cc(N3C(=O)C4=C(CCCC4)C3=O)c(F)cc2Cl)N(C)C1=O (stereo not drawn) for me?
0.0

Can you look up the measured SETVI herbicidal rating of CCOC(=O)CN1C(=O)C(F)SC1=Nc1cc(-n2c(=O)cc(C(F)(F)F)n(C)c2=O)c(F)cc1Cl (stereo not drawn) for me?
9.0

Can you look up the measured SETVI herbicidal rating of O=C1CSC(=Nc2cc(N3C(=O)C4=C(CCCC4)C3=O)c(F)cc2Cl)N1c1ccccc1 for me?
0.0

Can you look up the measured SETVI herbicidal rating of C=CCN1C(=O)C(CC(=O)NOC)SC1=Nc1cc(-n2c(=O)cc(C(F)(F)F)n(C)c2=O)c(F)cc1Cl (stereo not drawn) for me?
9.0

Can you look up the measured SETVI herbicidal rating of CN1C(=O)C(F)SC1=Nc1cc(N2C(=O)C3=C(CCCC3)C2=O)c(F)cc1Cl (stereo not drawn) for me?
4.0

Can you look up the measured SETVI herbicidal rating of CN1C(=O)C(CC(=O)NS(C)(=O)=O)SC1=Nc1cc(-n2c(=O)cc(C(F)(F)F)n(C)c2=O)c(F)cc1Cl (stereo not drawn) for me?
9.0
